Settings: in n-pentanol, 296.55 K
Recorded endpoint: solubility (mole fraction)
No unit in the answer, please; the number alone is enough.

Entry `Cl.N=C(N)Nc1ccc(C(=O)O)cc1` — recorded solubility (mole fraction) = 0.00071

The origin of these recorded values is BigSolDB 2.1.
